Values were extracted from patent US5234934A.

Protocol Notes: acute toxicity test in mice (Litchfield and Wilcoxon)
Format: in vivo, mouse
Test Parameters: mouse, in vivo, po., 14 days observation
Observable: LD50 at 336 h (mg/kg)
Field: numeric (mg/kg). Do not append units.

Here is how some compounds turned out for LD50 at 336 h.
Task item: Answer with reported LD50 at 336 h of CN1CCN(CC(O)CO/N=C2\CCCC\C2=C/c2ccccc2)CC1 (racemic)
Reply: 1800

Task item: # return recorded LD50 at 336 h for entry CC(C)NCC(O)CO/N=C1\CCCC\C1=C/c1ccc(Cl)cc1 (racemic)
Reply: 1500

Task item: Identify measured LD50 at 336 h corresponding to CC(C)N(CC(O)CO/N=C1\CCCC\C1=C/c1ccccc1)C(C)C (racemic)
Reply: 400

Task item: Let me know recorded LD50 at 336 h for OC(CO/N=C1\CCCC\C1=C/c1ccccc1)CN1CCCCCC1 (racemic) , thanks.
Reply: 900

Alright, here's another compound for you.
Task item: Supply recorded LD50 at 336 h for CC(C)NCC(O)CO/N=C1\CCCCC1Cc1ccc(Cl)cc1 (racemic) here.
Reply: 700

----------
Tested on: aconitine-induced ECG alterations
Protocol Notes: animal or person
Format: in vivo, rat
Test Parameters: Rattus norvegicus, iv, read-out: ED50 iv. (antiarrhythmic)
Observable: ED50 (mg/kg)
Express the result in mg/kg but write the number alone.

Worked cases, answers included:
Task item: // output ED50; input CC(C)NCC(O)COc1cccc2ccccc12 (stereo not shown) [Propranolol, reference compound] ; system aconitine-induced ECG alterations
Reply: 5.81

Task item: Name the recorded ED50 of CC(C)N(CC(O)CO/N=C1\CCCC\C1=C/c1ccccc1)C(C)C (racemic) [Example 1] , assay system aconitine-induced ECG alterations.
Reply: 1.21

Others:
Task item: Specify the recorded ED50 for CC(C)N(CC(O)CO/N=C1\CCCCC\C1=C/c1ccccc1)C(C)C (racemic) [Example 14] , system: aconitine-induced ECG alterations.
Reply: 1.64

Task item: Look up and report measured ED50 (aconitine-induced ECG alterations) for the following molecule: OC(CO/N=C1\CCCC\C1=C/c1ccccc1)CN1CCC(Cc2ccccc2)CC1 (racemic) [Example 54]
Reply: 3.47

----------
Tested on: hexobarbital narcosis
Protocol Notes: narcosis potentiating effect (hexobarbital sleeping time)
Test Parameters: Mus musculus, po, read-out: ED50 (narcosis potentiation)
Observable: ED50
Don't forget the unit after the number, please.

Consider the reported ED50 for these compounds:
Task item: Answer with the recorded ED50 of COc1ccc(CCNCC(O)CO/N=C2\CCCC\C2=C/c2ccccc2)cc1OC (racemic) only.
Reply: 70 mg/kg

Task item: Give the reported ED50 for this compound. CC(C)NCC(O)CO/N=C1\CCCC\C1=C/c1ccc(Cl)cc1 (racemic)
Reply: 75 mg/kg

Task item: Please list ED50 recorded for the compound CN1CCN(CC(O)CO/N=C2\CCCCCC\C2=C/c2ccccc2)CC1 (racemic)
Reply: 21.5 mg/kg

We now examine a further compound.
Task item: Recall and state the measured ED50 for COc1ccccc1/C=C1\CCCC\C1=N/OCC(O)CN1CCN(c2ccccc2OC)CC1 (racemic) .
Reply: 61 mg/kg

----------
Protocol Notes: acute toxicity test in mice (Litchfield and Wilcoxon)
Type: in vivo, mouse
Test Parameters: mouse, in vivo, po., 14 days observation
LD50 at 336 h listing for selected molecules.

Task item: Output LD50 at 336 h of CC(C)(C)NCC(O)CO/N=C1\CCCC\C1=C/c1ccc(Cl)cc1 (racemic) [Example 31]
Reply: ~1000 mg/kg

Task item: Look up LD50 at 336 h of OC(CO/N=C1\CCCC\C1=C/c1ccccc1)CN1CCN(c2ccc(Cl)cc2)CC1 (racemic) [Example 12] and report it.
Reply: 1000 mg/kg

Task item: Tell me measured LD50 at 336 h for CN1CCN(CC(O)CO/N=C2\CCCC\C2=C/c2c(Cl)cccc2Cl)CC1 (racemic) [Example 36] please.
Reply: 700 mg/kg

Task item: State its LD50 at 336 h: CCCN(CCC)CC(O)CO/N=C1\CCCCC\C1=C/c1ccc(OC)cc1 (racemic) [Example 51]
Reply: 100 to 500 mg/kg

Next:
Task item: Specify LD50 at 336 h for CN(C)CCCNCC(O)CO/N=C1\CCCC\C1=C/c1ccccc1 (racemic) [Example 11] and stop.
Reply: > 1000 mg/kg

Task item: Tell me its LD50 at 336 h given OC(CO/N=C1\CCCC\C1=C/c1ccccc1)CN1CCN(c2cccc(C(F)(F)F)c2)CC1 (racemic) [Example 53] as the entry.
Reply: > 1000 mg/kg

Task item: Give the reported value of LD50 at 336 h for this record: OC(CNC1CC1)CO/N=C1\CCCC\C1=C/c1ccc(Cl)cc1 (racemic) [Example 27]
Reply: ~1000 mg/kg

Task item: Tell us which LD50 at 336 h value is on record for COc1ccccc1/C=C1\CCCC\C1=N/OCC(O)CN1CCN(c2ccccc2OC)CC1 (racemic) [Example 38]
Reply: > 1000 mg/kg
